# Test system: HOP-62 NSCLC
# Procedure Details: NCI-60 one-dose screen, 48 h (100 = growth as untreated, 0 = no growth, -100 = all killed)
# Reported Conditions: 10 µM unless noted
This is part of a sample that, as a whole, favours compounds with a hit. Of some 83,000 tested, about 20% had one in any assay.
Below, each of the compounds is paired with its reported growth value.
Numbers only; they are read as %.

Solved entries:
COc1cc(C2NC(c3cc(OC)c(OC)c(OC)c3)C(C#N)(C#N)C2(C#N)C#N)cc(OC)c1OC (centres undefined) :: 94.8
Cc1nc2sc(C(=O)Nc3cccc(Br)c3)c(N)c2cc1C(=O)c1ccc(C(F)(F)F)cc1 :: 60.6
Fc1ccc(C2CC(c3cccc(Nc4ccncc4)c3)=NN2c2ccc(Cl)cc2)cc1 (centres undefined) :: 64.9
NC(=O)c1ccc[n+](CC(=O)N2CCN(c3cc4c(cc3F)c(=O)c(C(=O)O)cn4C3CC3)CC2)c1 :: 111

# query: growth of entry COc1ccc(Cl)cc1NC(=O)c1c(NC(=O)C(F)(F)C(F)(F)F)sc2c1CCCCC2
-14.6

# query: growth of entry Nc1c(C(=O)Nc2cccc3ccncc23)sc2nc3c(cc12)C(=O)CCC3
62.8

# query: growth of entry C=CCn1c(SCC(=O)Nc2ccc(C(=O)/C=C/c3cc(OC)c(OC)c(OC)c3)cc2)nnc1-c1cc(-c2ccc(S(C)(=O)=O)cc2)nc2ccccc12
111

# query: growth of entry CCOC(=O)c1cnc2c(cnn2CC)c1NN=C(C)C
76.6

# query: growth of entry CC(=O)O[C@H]1CC[C@@]2(C)[C@@H](CC[C@@H]3[C@@H]2CC[C@@]2(C)[C@H]3CC[C@]2(O)C(C)=O)C1
95.3

Where these numbers come from: PubChem BioAssay (NCI)
